Reference source for all entries: paper PMC9557730

Catalogue of response (Normalized Log2 iBAQ) values
B1: N-terminal 3×-FLAG-tagged p52 (WT) [human] / p44 [human (endogenous in HEK293T)] (parent)
chain 1: MESTPSRGLNRVHLQCRNLQEFLGGLSPGVLDRLYGHPATCLAVFRELPSLAKNWVMRMLFLEQPLPQAAVALWVKKEFSKAQEESTGLLSGLRIWHTQLLPGGLQGLILNPIFRQNLRIALLGGGKAWSDDTSQLGPDKHARDVPSLDKYAEERWEVVLHFMVGSPSAAVSQDLAQLLSQAGLMKSTEPGEPPCITSAGFQFLLLDTPAQLWYFMLQYLQTAQSRGMDLVEILSFLFQLSFSTLGKDYSVEGMSDSLLNFLQHLREFGLVFQRKRKSRRYYPTRLAINLSSGVSGAGGTVHQPGFIVVETNYRLYAYTESELQIALIALFSEMLYRFPNMVVAQVTRESVQQAIASGITAQQIIHFLRTRAHPVMLKQTPVLPPTITDQIRLWELERDRLRFTEGVLYNQFLSQVDFELLLAHARELGVLVFENSAKRLMVVTPAGHSDVKRFWKRQKHSS
chain 2: MDEEPERTKRWEGGYERTWEILKEDESGSLKATIEDILFKAKRKRVFEHHGQVRLGMMRHLYVVVDGSRTMEDQDLKPNRLTCTLKLLEYFVEEYFDQNPISQIGIIVTKSKRAEKLTELSGNPRKHITSLKKAVDMTCHGEPSLYNSLSIAMQTLKHMPGHTSREVLIIFSSLTTCDPSNIYDLIKTLKAAKIRVSVIGLSAEVRVCTVLARETGGTYHVILDESHYKELLTHHVSPPPASSSSECSLIRMGFPQHTIASLSDQDAKPSFSMAHLDGNTEPGLTLGGYFCPQCRAKYCELPVECKICGLTLVSAPHLARSYHHLFPLDAFQEIPLEEYNGERFCYGCQGELKDQHVYVCAVCQNVFCVDCDVFVHDSLHCCPGCIHKIPAPSGV

Variants of: B1
Experiment: FLAG-IP LC–MS (iBAQ)
Settings: with p44 [human (endogenous in HEK293T)]; HEK293T nuclear extracts; n = 3, biological replicates; read off a plot
Lab note: write the figure by itself, no unit.

QUERY: Give me measured response (Normalized Log2 iBAQ), please, for this variant: chain 1 E310F
RESULT: 0.64

QUERY: Write down response (Normalized Log2 iBAQ) measured for item chain 1 Y316A Y318A
RESULT: 0.66

QUERY: Give response (Normalized Log2 iBAQ) for chain 1 R337A F338A
RESULT: 0.71

QUERY: Input chain 1 E310A R314A , output reported response (Normalized Log2 iBAQ).
RESULT: 0.66
